test: Transdermal delivery of melatonin: plasma level of melatonin after applying composition to skin of a subject; details: human, plasma, topical, 3 mg, Plasma level of melatonin, Tryptophan isopropyl ester hydrochloride 247.52 mM, 0.3 mL applied to skin, 2 hr after transdermal administration
READOUT_LABEL: concentration at 2 h

>  <RECORD_SMILES>
COc1ccc2[nH]cc(CCNC(C)=O)c2c1

>  <VALUE_MEASURED>
2.8 ng/mL

$$$$

* * *

experiment: Transdermal delivery of melatonin: plasma level of melatonin after applying composition to skin of a subject; details: human, plasma, topical, Plasma level of melatonin, 2-(Diethylamino)ethyl 2-acetoxybenzoate hydrochloride 221.69 mM, 0.375 mL applied to skin, 0 hr after transdermal administration

>  <COMPOUND>
COc1ccc2[nH]cc(CCNC(C)=O)c2c1 [Melatonin]

>  <concentration at 0 h>
0 ng/mL

$$$$
